Molecular target: OsWRKY34 (Oryza sativa, UniProt Q0JBA9 1-250)
Sequence (Q0JBA9 entry or part of it): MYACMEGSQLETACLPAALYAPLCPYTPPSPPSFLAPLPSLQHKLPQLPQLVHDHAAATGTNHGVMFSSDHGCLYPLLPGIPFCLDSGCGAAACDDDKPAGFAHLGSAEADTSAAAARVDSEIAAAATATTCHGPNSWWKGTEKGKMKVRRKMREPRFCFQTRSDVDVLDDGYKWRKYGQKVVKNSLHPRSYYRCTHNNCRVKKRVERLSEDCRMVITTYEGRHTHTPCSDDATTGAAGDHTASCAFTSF
Experiment: protein-binding microarray (RPBM); PBS, 2% BSA, 51.3 ng/ul salmon testes DNA, 50 uM zinc acetate, 200 nM TF, 25 C, 1 h; high values mean tight binding
Details: protein: recombinant; tags: N-terminal polyhistidine and DsRed monomer fusion (pET32a); label: CyDye5-dUTP incorporated in the synthesized complementary strand; 3' TTTTT single-stranded linker to array surface; dsDNA, one strand shown
Whole data set: some 68,000 sequences, median “fluorescence intensity (a.u.)” near 9,100, cut for the highest 2% near 16,000. This excerpt belongs to a sample that is enriched for the highest values.
Readout Label: binding signal

// fetch binding signal given entry `TGTTTGGTTGGGATACATGGGAATTTTGGTAGGATGGGGACGGAGTCACCTAGTGCAG`
12700 fluorescence intensity (a.u.)

State its binding signal: `TCTCTTTCTCTCGCTTTCTTTTTGCATAGTTTTCTTCATGCGGAGTCACCTAGTGCAG`
8700 fluorescence intensity (a.u.)

Tell me its binding signal given `GTAGTTTTTTTCCTAGTTTCAGTTTTTGTTTTGCTTTTTTCGGAGTCACCTAGTGCAG` as the entry.
11200 fluorescence intensity (a.u.)

Identify measured binding signal corresponding to `TAACTTCTCAACTTTTTCACCATCTAAACACAGTCTTCATCGGAGTCACCTAGTGCAG`
8400 fluorescence intensity (a.u.)

Quickly give me recorded binding signal for `ACCGTGTTGCTGCCTGGTGCTCGCTTTGTTCGTAGGCCTTCGGAGTCACCTAGTGCAG`
8520 fluorescence intensity (a.u.)

Specify binding signal for `ATCACTCTTCTTGGTCGTTCTTGCCATTCTTGTACCGCGACGGAGTCACCTAGTGCAG` and stop.
18200 fluorescence intensity (a.u.)

Look up and report measured binding signal for this entry: `ATAGGTGCCGGTTCTATTTTGGTATAGGGGTCGGTTGTTTCGGAGTCACCTAGTGCAG`
11700 fluorescence intensity (a.u.)

Give the measured binding signal for `GATATACACACTTAGCTCTCCTACTGTGAGAATTCTCTTCCGGAGTCACCTAGTGCAG`
9480 fluorescence intensity (a.u.)

Respond only with binding signal recorded for `ATGTTTTTCTTTTCTTTCTTCTTTTTTTTGTTTTTGACCTCGGAGTCACCTAGTGCAG`
11900 fluorescence intensity (a.u.)

Specify binding signal for `ATCTTTTTACCCAATTCTTGATCACTCTTCTTGGTCGTTCCGGAGTCACCTAGTGCAG` and stop.
8060 fluorescence intensity (a.u.)

Specify reported binding signal for the sequence shown: `CTATCTTTTTCTCCATCTTTCTCTGTCCGTCCATTCACCCCGGAGTCACCTAGTGCAG`
8690 fluorescence intensity (a.u.)

Please give measured binding signal of the following entry: `GGTATCTGTTGCTGCTTGCTGGTTCTCGTGCTATTGTTCTCGGAGTCACCTAGTGCAG`
19900 fluorescence intensity (a.u.)

Determine from records and report binding signal for `AAATTTGTTATTTTTGTTTCGAATTATATAATTCGAATTTCGGAGTCACCTAGTGCAG`
9450 fluorescence intensity (a.u.)

Input `GGGGAGGCGAGGCGGCGAGGTTATAAAAACGGTGGGGTGGCGGAGTCACCTAGTGCAG` , output reported binding signal.
12200 fluorescence intensity (a.u.)

Determine its reported binding signal: `TCTCTCTTTTTTTAAGCACCTTTTCTGCCTTTTTTCTTTTCGGAGTCACCTAGTGCAG`
12200 fluorescence intensity (a.u.)

For `TTTTCAACCTTATATTGTCATTGTCCGTCAACTTGGCTTGCGGAGTCACCTAGTGCAG` , write its binding signal.
8970 fluorescence intensity (a.u.)

Tell me its binding signal given `CTCTCCTCTCTTCTCGAGCGCGGCGGCGGTGGTGGGGAGGCGGAGTCACCTAGTGCAG` as the entry.
14300 fluorescence intensity (a.u.)

Dear colleague, please send me the reported binding signal for `AAACCCTAGCTCCGGATTCTTCTCCTCTCCTCCTTTCTTCCGGAGTCACCTAGTGCAG` when you can.
8070 fluorescence intensity (a.u.)

Supply binding signal value. Item: `CGGGGTTCTTGTGTTTATTGTTAAGATCCGGTTTGCTGAACGGAGTCACCTAGTGCAG`
21900 fluorescence intensity (a.u.)

Give recorded binding signal. `CCCACATTTTTTCTTCTCACTTATATGTGGGTCCCATAATCGGAGTCACCTAGTGCAG`
8640 fluorescence intensity (a.u.)

Using known records, supply binding signal for `TGTCACAGTGTTTTGTTTGTGTTTTTGACCTTGCTTTCCTCGGAGTCACCTAGTGCAG`
16800 fluorescence intensity (a.u.)

Identify measured binding signal associated with `TTGGATCGTTTGCTTTTCTTTGCCTTTCTTTTGGATTTCTCGGAGTCACCTAGTGCAG`
11700 fluorescence intensity (a.u.)

Given `GTAATTCTGTTGTCATACGGTTTATTGTGTGGTTGCTGAACGGAGTCACCTAGTGCAG` , respond with its binding signal.
9010 fluorescence intensity (a.u.)

Give recorded binding signal. `CTCGCTTTTCTCTTTTTTGATACTGTCTCGTGGTTTCTTGCGGAGTCACCTAGTGCAG`
18400 fluorescence intensity (a.u.)

Please supply the value of reported binding signal for the item `GGGGTGGGGTTGGCGGCGACGCGGGCGAGGCCGAGGAGGACGGAGTCACCTAGTGCAG`
13400 fluorescence intensity (a.u.)

Give the value of binding signal reported for the following: `TCCACCTTTTCATCAATATAGTCATGCATTAATACAGTCACGGAGTCACCTAGTGCAG`
8670 fluorescence intensity (a.u.)

Output measured binding signal for this item: `GCGGTGGCGGTTGGGGTGGCGAGTGGGGAGGAGGAGGCGGCGGAGTCACCTAGTGCAG`
18900 fluorescence intensity (a.u.)

# return recorded binding signal for input `GAACACGATGACATCGGATCGGGTCGGTTTCTCTCTTGCTCGGAGTCACCTAGTGCAG`
9010 fluorescence intensity (a.u.)

Return binding signal (reported value) for this sequence: `GCGGAGGAGGGCGGGAGGAAGCGGGTGGCGGCGGCGGAGTCGGAGTCACCTAGTGCAG`
10900 fluorescence intensity (a.u.)

Let me know recorded binding signal for `GGGTCGGTTTCTCTCTTGCTGTCTTCTCGATCGATCGATGCGGAGTCACCTAGTGCAG` , thanks.
20200 fluorescence intensity (a.u.)

Consider the sequence `GCCGCTTGCCCTCGCAGCCGCTCCGCCTGCCTCCGCCCACCGGAGTCACCTAGTGCAG` . State its measured binding signal.
10000 fluorescence intensity (a.u.)

Supply reported binding signal belonging to this sequence: `GGCGGGCGCGGTGGAGGCGGGGAGGAAGGGGAGCGGAGGTCGGAGTCACCTAGTGCAG`
9390 fluorescence intensity (a.u.)

Let me know recorded binding signal for `TCGTTATACCTGGTTTTTTTGGTTGAGGGATGTTATTCGACGGAGTCACCTAGTGCAG` , thanks.
12500 fluorescence intensity (a.u.)

// fetch binding signal given entry `AAGCGATCGGGGCGGCGGAGGAGGTGGGTGGGAGGGAGGGCGGAGTCACCTAGTGCAG`
30200 fluorescence intensity (a.u.)

Identify binding signal associated with the sequence `CTGTTCCATTTCTCCTTGTTGCATCAGTAACTCCAAACCACGGAGTCACCTAGTGCAG`
12200 fluorescence intensity (a.u.)

Please indicate binding signal recorded for `CTGAAGATTGGATCTAAACTTTGTATCTAAACACAGCCATCGGAGTCACCTAGTGCAG`
64300 fluorescence intensity (a.u.)

Note binding signal for the sequence shown: `CGCCCCTCCCCTTTGGCGCCGCCGCGCCTGCGTTGACCCTCGGAGTCACCTAGTGCAG`
8230 fluorescence intensity (a.u.)
